# LogP [a] per entry
# Test: LogP by HPLC on reversed phase columns (EEC directive 79/831 Annex V.A8)
# Condition summary: Table 1, formula (I); LC-UV, acidic range, 0.1% formic acid in water and acetonitrile
Measurement kind: LogP [a]

Compound: OC(Cn1cncn1)c1ccc(Oc2ccc(F)cc2)nc1Cl (stereo not drawn)
Measurement kind: LogP [a]
Value observed: 2.08^[a]
--
Compound: CC(O)(Cn1cncn1)c1ccc(Oc2ccc(Cl)cc2)nc1Cl (racemic) [I.09]
Measurement kind: LogP [a]
Value observed: 2.66^[a]
--
Compound: OC(Cn1cncn1)c1ccc(Oc2ccc(Cl)cc2F)nc1C(F)(F)F (stereo not drawn) [I.90]
Measurement kind: LogP [a]
Value observed: 2.88^[a]
--
Compound: OC(Cn1cncn1)c1cnc(Oc2ccc(Br)cc2)cc1C(F)F (stereo not drawn)
Measurement kind: LogP [a]
Value observed: 2.59^[a]
--
Compound: CC(O)(Cn1cncn1)c1ccc(Oc2ccc(F)cc2)nc1Oc1ccc(F)cc1 (stereo not drawn)
Measurement kind: LogP [a]
Value observed: 3.13^[a]
--
Compound: OC(Cn1cncn1)c1ccc(Oc2ccc(C(F)F)cc2)nc1C(F)(F)F (stereo not drawn)
Measurement kind: LogP [a]
Value observed: 2.49^[a]
--
Compound: OC(Cn1cncn1)c1cnc(Oc2ccc(Cl)cc2)cc1Cl (stereo not drawn)
Measurement kind: LogP [a]
Value observed: 2.48^[a]
--
Compound: OC(Cn1cncn1)c1cnc(Oc2ccccc2)cc1Cl (stereo not drawn)
Measurement kind: LogP [a]
Value observed: 1.92^[a]
--
Compound: OC(Cn1cncn1)c1cnc(Oc2ccc(Cl)cc2)cc1C(F)F (stereo not drawn)
Measurement kind: LogP [a]
Value observed: 2.13^[a]
--
Compound: OC(Cn1cncn1)(c1ccc(Oc2ccc(Br)cc2)nc1C(F)(F)F)C1CC1 (single isomer, unassigned) [I.99]
Measurement kind: LogP [a]
Value observed: 3.41^[a]
--
Compound: CC(O)(Cn1cncn1)c1ccc(Oc2ccc(S(F)(F)(F)(F)F)cc2)nc1Cl (stereo not drawn)
Measurement kind: LogP [a]
Value observed: 3.17^[a]
--
Compound: OC(Cn1cncn1)c1ccc(Oc2ccc(Br)cc2)nc1C(F)(F)F (stereo not drawn)
Measurement kind: LogP [a]
Value observed: 2.82^[a]
--
Compound: CC(O)(Cn1cncn1)c1ccc(Oc2ccc(C(F)F)cc2)nc1Cl (stereo not drawn)
Measurement kind: LogP [a]
Value observed: 2.41^[a]
--
Compound: CC(O)(Cn1cncn1)c1ncc(Oc2ccccc2)cc1Cl (stereo not drawn)
Measurement kind: LogP [a]
Value observed: 2.47
--
Compound: CC(O)(Cn1cncn1)c1cnc(Oc2ccc(S(F)(F)(F)(F)F)cc2)cc1C(F)(F)F (stereo not drawn)
Measurement kind: LogP [a]
Value observed: 3.33^[a]
--
Compound: CC(O)(Cn1cncn1)c1ccc(Oc2ccc(Cl)cc2)nc1OC(F)(F)F (stereo not drawn)
Measurement kind: LogP [a]
Value observed: 3.29^[a]
--
Compound: OC(Cn1cncn1)c1ccc(Oc2ccc(F)cc2F)nc1Cl (stereo not drawn)
Measurement kind: LogP [a]
Value observed: 2.18^[a]
--
Compound: OC(Cn1cncn1)c1ccc(Oc2ccc(C(F)F)cc2)nc1Cl (stereo not drawn)
Measurement kind: LogP [a]
Value observed: 2.17^[a]
--
Compound: OC(Cn1cncn1)c1ccc(Oc2ccc(OC(F)(F)F)cc2)nc1Cl (stereo not drawn)
Measurement kind: LogP [a]
Value observed: 2.73^[a]
--
Compound: OC(Cn1cncn1)c1ccc(Oc2ccc(Br)cc2)nc1C(F)F (stereo not drawn)
Measurement kind: LogP [a]
Value observed: 2.50^[a]
--
Compound: OC(Cn1cncn1)c1cnc(Oc2ccc(S(F)(F)(F)(F)F)cc2)cc1C(F)(F)F (single isomer, unassigned) [I.86]
Measurement kind: LogP [a]
Value observed: 3.11^[a]
--
Compound: OC(Cn1cncn1)(c1ccc(Oc2ccc(Br)cc2)nc1C(F)(F)F)C1CC1 (single isomer, unassigned) [I.84]
Measurement kind: LogP [a]
Value observed: 3.41 ^[a]
--
Compound: OC(Cn1cncn1)c1cnc(Oc2ccc(Br)cc2)cc1C(F)(F)F (stereo not drawn)
Measurement kind: LogP [a]
Value observed: 2.75^[a]
--
Compound: CC(O)(Cn1cncn1)c1ccc(Oc2ccc(Cl)cc2)nc1F (stereo not drawn)
Measurement kind: LogP [a]
Value observed: 2.46^[a]
--
Compound: CC(O)(Cn1cncn1)c1cnc(Oc2ccccc2)cc1Cl (stereo not drawn)
Measurement kind: LogP [a]
Value observed: 2.10
--
Compound: CC(O)(Cn1cncn1)c1ccc(Oc2ccc(Cl)cc2)nc1C(F)(F)F (stereo not drawn) [I.67]
Measurement kind: LogP [a]
Value observed: 2.68^[a]
--
Compound: CC(O)(Cn1cncn1)c1cnc(Oc2ccc(Cl)cc2F)cc1C(F)(F)F (stereo not drawn)
Measurement kind: LogP [a]
Value observed: 3.02^[a]
--
Compound: CC(O)(Cn1cncn1)c1cnc(Oc2ccc(Br)cc2)cc1C(F)(F)F (stereo not drawn)
Measurement kind: LogP [a]
Value observed: 2.96^[a]
--
Compound: CC(O)(Cn1cncn1)c1cnc(Oc2ccc(OC(F)(F)F)cc2)cc1C(F)(F)F (stereo not drawn)
Measurement kind: LogP [a]
Value observed: 3.23^[a]
--
Compound: CC(O)(Cn1cncn1)c1ccc(Oc2ccc(OC(F)(F)F)cc2)nc1C(F)(F)F (racemic)
Measurement kind: LogP [a]
Value observed: 2.98^[a]
